assay: Lipophilicity, log D of the compound at pH 7.4 by HPLC analysis; format: physicochemical; conditions: buffer
Below, each entry is listed alongside its reported logD.
Note: the reply should be a number with no unit written.

Input: Sample Cc1ccc(-n2c(=O)n(C)c3cnc4ccc(-c5ccncc5)cc4c32)cc1 — what was its logD?
Output: 4.95

Input: Sample Cn1cc(-c2ccc3ncc4c(c3c2)n(-c2ccc(C(C)(C)C#N)cc2)c(=O)n4C)cn1 — what was its logD?
Output: 5.3

###

Below, each entry is listed alongside its reported CC50 at 48 h.
experiment: Cytotoxicity against human HepG2 cells after 48 hrs by Celltiter-Glo assay; assay type: cell-based; conditions: HepG2 cells, read-out: TC50

CN(C)c1ccc(-n2c(=O)n(C)c3cnc4ccc(-c5ccncc5)cc4c32)cc1 :: 2.34 µM
Cn1c(=O)n(-c2ccc(C(C)(C)C#N)cc2)c2c3cc(C#Cc4cccnc4)ccc3ncc21 :: 0.14 µM
Cn1c(=O)n(-c2ccc(N3CCOCC3)cc2)c2c3cc(-c4ccncc4)ccc3ncc21 :: > 7.6 µM
Cn1c(=O)n(-c2ccc(C(C)(C)C#N)cc2)c2c3ccccc3ncc21 :: > 50 µM
CN(C)c1ccc(-n2c(=O)[nH]c3cnc4ccccc4c32)cc1 :: 19.1 µM
Cn1c(=O)n(C)c2c3cc(-c4ccncc4)ccc3ncc21 :: > 20 µM
N#Cc1ccc(-n2c(=O)[nH]c3cnc4ccc(-c5cnc6ccccc6c5)cc4c32)cc1 :: > 50 µM
Cn1c(=O)n(-c2ccc(C(F)(F)F)cc2)c2c3cc(-c4cnc5ccccc5c4)ccc3ncc21 :: > 25 µM

Input: Sample Cn1c(=O)n(-c2ccc(CC#N)cc2)c2c3cc(-c4ccncc4)ccc3ncc21 — what was its CC50 at 48 h?
Output: > 50 µM

Input: Sample Cn1c(=O)n(-c2ccc(C(C)(C)C#N)cc2)c2c3cc(N)ccc3ncc21 — what was its CC50 at 48 h?
Output: > 50 µM

###

system: Trypanosoma brucei brucei; experiment: Inhibition of receptor-mediated endocytosis in Trypanosoma brucei brucei Lister 427 assessed as decrease in transferrin uptake at 2 X EC50 after 18 hrs; assay type: functional, organism-based
Active and inactive are the calls of the source. No cut-off for these calls is given here.
API: response.call in true = active, false = inactive

Cn1c(=O)n(-c2ccc(C(C)(C)C#N)cc2)c2c3cc(-c4cnc5ccccc5c4)ccc3ncc21 :: true

Input: Please share the test call associated with Cn1cc(-c2ccc3ncc4c(c3c2)n(-c2ccc(C(C)(C)C#N)cc2)c(=O)n4C)cn1 .
Output: false

Input: Please share the test call associated with COc1ccc(-n2c(=O)n(C)c3cnc4ccc(-c5ccncc5)cc4c32)cc1 .
Output: true

Input: Please share the test call associated with Cc1ccc(-n2c(=O)n(C)c3cnc4ccc(-c5ccncc5)cc4c32)cc1 .
Output: true

###

biological target: Phosphatidylinositol 4,5-bisphosphate 3-kinase catalytic subunit alpha isoform (Homo sapiens, UniProt P42336); assay: Inhibition of human PI3K-alpha assessed as inhibition of […] after 1 hr by TR-FRET analysis
Sequence (P42336 whole entry, canonical isoform): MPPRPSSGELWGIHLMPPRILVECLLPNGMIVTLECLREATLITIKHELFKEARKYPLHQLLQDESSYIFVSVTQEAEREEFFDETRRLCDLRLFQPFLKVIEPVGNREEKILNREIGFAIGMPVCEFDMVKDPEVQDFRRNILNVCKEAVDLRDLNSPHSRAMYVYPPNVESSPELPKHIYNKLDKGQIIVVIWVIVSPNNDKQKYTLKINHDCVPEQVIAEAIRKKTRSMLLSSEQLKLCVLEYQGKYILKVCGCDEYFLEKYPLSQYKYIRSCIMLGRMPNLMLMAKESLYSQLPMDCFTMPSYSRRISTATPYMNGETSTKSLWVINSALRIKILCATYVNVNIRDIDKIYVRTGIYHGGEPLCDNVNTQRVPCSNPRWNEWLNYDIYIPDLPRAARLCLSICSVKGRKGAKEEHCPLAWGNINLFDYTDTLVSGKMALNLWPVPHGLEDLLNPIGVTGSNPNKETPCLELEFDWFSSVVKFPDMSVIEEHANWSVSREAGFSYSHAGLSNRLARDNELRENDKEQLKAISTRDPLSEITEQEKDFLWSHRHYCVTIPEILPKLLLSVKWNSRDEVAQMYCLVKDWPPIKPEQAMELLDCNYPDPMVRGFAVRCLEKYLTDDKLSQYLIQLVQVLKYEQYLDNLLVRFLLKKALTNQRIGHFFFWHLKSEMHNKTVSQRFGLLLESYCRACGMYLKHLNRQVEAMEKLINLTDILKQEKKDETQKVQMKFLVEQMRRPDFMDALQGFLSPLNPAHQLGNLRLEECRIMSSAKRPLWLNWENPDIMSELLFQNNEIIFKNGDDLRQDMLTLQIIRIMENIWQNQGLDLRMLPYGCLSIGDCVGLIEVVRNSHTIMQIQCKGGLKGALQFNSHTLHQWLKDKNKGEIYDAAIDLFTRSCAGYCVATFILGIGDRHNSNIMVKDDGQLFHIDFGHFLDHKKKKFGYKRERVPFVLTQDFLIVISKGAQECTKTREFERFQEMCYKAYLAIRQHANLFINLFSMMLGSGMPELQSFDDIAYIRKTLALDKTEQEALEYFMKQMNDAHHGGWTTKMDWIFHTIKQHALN
reported-endpoint: pIC50
Entry type: numeric. Quantity: pIC50, the -log10 of concentration in molar units.

Example results:
Cc1ccc(-n2c(=O)n(C)c3cnc4ccc(-c5ccncc5)cc4c32)cc1 :: 6.20
COc1ccc(-n2c(=O)n(C)c3cnc4ccc(-c5ccncc5)cc4c32)cc1 :: 6.30
Cn1cc(-c2ccc3ncc4c(c3c2)n(-c2ccc(C(C)(C)C#N)cc2)c(=O)n4C)cn1 :: 6.40

Turning now to a further record.
Input: Sample Cn1c(=O)n(-c2ccc(C(C)(C)C#N)cc2)c2c3ccccc3ncc21 — what was its pIC50?
Output: 5.40

###

test: Apparent permeability across artificial membrane after 3 hrs by HPLC analysis; format: physicochemical
Below, each entry is listed alongside its reported permeability.
Give just the numeric value; ×10⁻⁶ cm/s need not be written.

Example results:
COc1ccc(-n2c(=O)n(C)c3cnc4ccc(-c5ccncc5)cc4c32)cc1 :: 86
Cc1ccc(-n2c(=O)n(C)c3cnc4ccc(-c5ccncc5)cc4c32)cc1 :: 47

Turning now to a further record.
Input: Sample Cn1c(=O)n(-c2ccc(C(C)(C)C#N)cc2)c2c3ccccc3ncc21 — what was its permeability?
Output: 57

###

Below, each entry is listed alongside its reported pIC50.
target: Serine/threonine-protein kinase mTOR (Homo sapiens); assay: Inhibition of human recombinant mTOR assessed as inhibition of 4EBP1 phosphorylation after 30 mins by TR-FRET analysis
Entry type: numeric. Quantity: pIC50, the -log10 of concentration in molar units.

Cn1cc(-c2ccc3ncc4c(c3c2)n(-c2ccc(C(C)(C)C#N)cc2)c(=O)n4C)cn1 :: 5.93
Cn1c(=O)n(-c2ccc(C(C)(C)C#N)cc2)c2c3ccccc3ncc21 :: 5.79
COc1ccc(-n2c(=O)n(C)c3cnc4ccc(-c5ccncc5)cc4c32)cc1 :: 6.42

Turning now to a further record.
Input: Which pIC50 is reported with Serine/threonine-protein kinase mTOR (Homo sapiens) for this entry: Cc1ccc(-n2c(=O)n(C)c3cnc4ccc(-c5ccncc5)cc4c32)cc1 ?
Output: 6.33

###

target: Phosphatidylinositol 4,5-bisphosphate 3-kinase catalytic subunit beta isoform (Homo sapiens, UniProt P42338); assay: Inhibition of human PI3K-beta assessed as inhibition of […] after 1 hr by TR-FRET analysis
Sequence (P42338 whole entry, canonical isoform): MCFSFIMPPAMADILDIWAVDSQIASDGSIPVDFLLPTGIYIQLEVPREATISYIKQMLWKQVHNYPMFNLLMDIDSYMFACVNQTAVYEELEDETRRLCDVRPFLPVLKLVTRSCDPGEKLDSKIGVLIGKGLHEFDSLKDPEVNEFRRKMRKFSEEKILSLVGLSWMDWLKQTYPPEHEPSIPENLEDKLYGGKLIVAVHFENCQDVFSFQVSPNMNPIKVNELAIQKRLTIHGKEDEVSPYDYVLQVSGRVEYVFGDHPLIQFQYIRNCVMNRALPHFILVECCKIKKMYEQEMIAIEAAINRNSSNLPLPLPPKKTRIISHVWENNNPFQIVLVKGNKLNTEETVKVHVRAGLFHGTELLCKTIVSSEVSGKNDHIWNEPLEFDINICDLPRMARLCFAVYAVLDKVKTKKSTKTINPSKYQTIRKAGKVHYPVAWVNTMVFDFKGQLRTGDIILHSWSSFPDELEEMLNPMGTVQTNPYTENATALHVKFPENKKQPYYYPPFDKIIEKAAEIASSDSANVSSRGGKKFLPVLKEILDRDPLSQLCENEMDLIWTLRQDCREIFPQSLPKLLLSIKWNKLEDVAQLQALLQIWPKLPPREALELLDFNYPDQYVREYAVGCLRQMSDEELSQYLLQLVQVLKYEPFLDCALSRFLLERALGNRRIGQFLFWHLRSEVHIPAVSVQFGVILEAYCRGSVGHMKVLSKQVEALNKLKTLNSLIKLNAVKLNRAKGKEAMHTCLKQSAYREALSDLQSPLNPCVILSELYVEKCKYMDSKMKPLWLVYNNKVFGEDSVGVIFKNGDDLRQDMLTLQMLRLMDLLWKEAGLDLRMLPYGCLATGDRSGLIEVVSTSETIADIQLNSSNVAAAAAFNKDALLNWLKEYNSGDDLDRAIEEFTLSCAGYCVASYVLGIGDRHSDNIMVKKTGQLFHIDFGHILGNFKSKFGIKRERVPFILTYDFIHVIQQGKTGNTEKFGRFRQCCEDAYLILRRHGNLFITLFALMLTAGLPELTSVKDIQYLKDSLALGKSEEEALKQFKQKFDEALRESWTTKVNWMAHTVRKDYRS
reported-endpoint: IC50

Example results:
Cc1ccc(-n2c(=O)n(C)c3cnc4ccc(-c5ccncc5)cc4c32)cc1 :: 31.6 µM
Cn1cc(-c2ccc3ncc4c(c3c2)n(-c2ccc(C(C)(C)C#N)cc2)c(=O)n4C)cn1 :: 7.94 µM
Cn1c(=O)n(-c2ccc(C(C)(C)C#N)cc2)c2c3ccccc3ncc21 :: > 30 µM

Input: Sample COc1ccc(-n2c(=O)n(C)c3cnc4ccc(-c5ccncc5)cc4c32)cc1 — what was its IC50?
Output: 7.94 µM

###

Below, each entry is listed alongside its reported CC50 at 48 h.
experiment: Cytotoxicity against human HepG2 cells after 48 hrs by Celltiter-Glo assay; type: cell-based; details: HepG2 cells, read-out: TC50

Cc1ccc2ncc3c(c2c1)n(-c1ccc(C(C)(C)C#N)cc1)c(=O)n3C :: > 20 µM

Input: Sample N#CCc1ccc(-n2c(=O)[nH]c3cnc4ccc(-c5ccncc5)cc4c32)cc1 — what was its CC50 at 48 h?
Output: > 50 µM

Input: Sample COc1ccc(-n2c(=O)n(C)c3cnc4ccc(-c5ccncc5)cc4c32)cc1 — what was its CC50 at 48 h?
Output: 11.2 µM

Input: Sample Cc1ccc(-n2c(=O)n(C)c3cnc4ccc(-c5ccc(C(=O)O)cc5)cc4c32)cc1 — what was its CC50 at 48 h?
Output: > 50 µM

Input: Sample Cc1ccc(-n2c(=O)n(C)c3cnc4ccc(-c5ccncc5)cc4c32)cc1 — what was its CC50 at 48 h?
Output: 4.78 µM

Input: Sample Cc1ccc2ncc3c(c2c1)n(-c1ccccc1)c(=O)n3C — what was its CC50 at 48 h?
Output: > 50 µM

Input: Sample CN(C)c1ccc(-n2c(=O)n(C)c3cnc4ccccc4c32)cc1 — what was its CC50 at 48 h?
Output: 3 µM

Input: Sample Cn1c(=O)n(-c2ccccc2)c2c3cc(-c4cnc5ccccc5c4)ccc3ncc21 — what was its CC50 at 48 h?
Output: > 25 µM

Input: Sample CN1CCN(Cc2ccc(-n3c(=O)n(C)c4cnc5ccc(-c6ccncc6)cc5c43)cc2)CC1 — what was its CC50 at 48 h?
Output: > 7.6 µM

Input: Sample CN(C)c1ccc(-n2c(=O)[nH]c3cnc4ccc(-c5ccncc5)cc4c32)cc1 — what was its CC50 at 48 h?
Output: > 50 µM

Input: Sample Cn1c(=O)n(-c2ccc(C(C)(C)C#N)cc2)c2c3cc(N4CCOCC4)ccc3ncc21 — what was its CC50 at 48 h?
Output: > 50 µM

Input: Sample Cn1c(=O)n(-c2ccc(C(C)(C)C#N)cc2)c2c3cc(-c4cc5ccccc5s4)ccc3ncc21 — what was its CC50 at 48 h?
Output: > 25 µM

Input: Sample Cn1c(=O)n(-c2ccccc2)c2c3ccccc3ncc21 — what was its CC50 at 48 h?
Output: > 50 µM

Input: Sample Cn1c(=O)n(-c2ccc(C(C)(C)C#N)cc2)c2c3cc(-c4ccc(C(F)(F)F)nc4)ccc3ncc21 — what was its CC50 at 48 h?
Output: > 25 µM

Input: Sample Cn1c(=O)n(-c2ccc(C(C)(C)C#N)cc2)c2c3cc(-c4cccnc4)ccc3ncc21 — what was its CC50 at 48 h?
Output: 0.575 µM

Input: Sample Cn1c(=O)n(-c2ccc(C(C)(C)C#N)cc2)c2c3cc(-c4ccccc4)ccc3ncc21 — what was its CC50 at 48 h?
Output: 1.82 µM

###

Below, each entry is listed alongside its reported IC50.
biological target: Phosphatidylinositol 4,5-bisphosphate 3-kinase catalytic subunit delta isoform (Homo sapiens); assay: Inhibition of human PI3K-delta assessed as inhibition of […] after 1 hr by TR-FRET analysis
Sequence (O00329 whole entry, canonical isoform): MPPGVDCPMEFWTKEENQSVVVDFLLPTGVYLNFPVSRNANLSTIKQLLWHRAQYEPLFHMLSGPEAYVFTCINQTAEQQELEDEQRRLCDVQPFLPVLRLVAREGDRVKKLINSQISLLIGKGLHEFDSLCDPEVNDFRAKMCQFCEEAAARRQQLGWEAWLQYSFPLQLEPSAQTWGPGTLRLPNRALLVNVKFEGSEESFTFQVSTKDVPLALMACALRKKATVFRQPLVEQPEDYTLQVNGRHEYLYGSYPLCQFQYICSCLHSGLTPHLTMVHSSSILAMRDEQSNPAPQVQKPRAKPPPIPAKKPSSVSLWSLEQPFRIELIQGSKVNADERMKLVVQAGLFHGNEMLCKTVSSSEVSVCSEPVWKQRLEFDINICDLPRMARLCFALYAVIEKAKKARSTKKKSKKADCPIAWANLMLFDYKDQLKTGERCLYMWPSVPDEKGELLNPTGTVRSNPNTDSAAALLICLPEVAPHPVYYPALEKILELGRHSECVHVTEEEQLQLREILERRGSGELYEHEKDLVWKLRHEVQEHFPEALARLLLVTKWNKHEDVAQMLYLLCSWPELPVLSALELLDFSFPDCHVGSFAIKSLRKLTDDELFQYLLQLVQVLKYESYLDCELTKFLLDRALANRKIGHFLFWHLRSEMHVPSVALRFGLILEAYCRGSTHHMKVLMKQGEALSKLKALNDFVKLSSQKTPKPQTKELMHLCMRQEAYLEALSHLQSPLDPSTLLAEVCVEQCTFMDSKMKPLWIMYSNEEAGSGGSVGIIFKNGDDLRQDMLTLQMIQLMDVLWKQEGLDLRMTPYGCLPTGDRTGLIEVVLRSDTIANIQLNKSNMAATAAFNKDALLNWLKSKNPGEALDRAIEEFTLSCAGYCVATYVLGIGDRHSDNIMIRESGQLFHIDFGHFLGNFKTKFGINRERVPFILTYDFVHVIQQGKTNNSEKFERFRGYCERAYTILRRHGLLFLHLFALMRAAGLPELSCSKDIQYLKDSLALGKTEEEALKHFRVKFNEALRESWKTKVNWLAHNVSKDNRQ
Give just the numeric value; nM need not be written.

Example results:
Cn1cc(-c2ccc3ncc4c(c3c2)n(-c2ccc(C(C)(C)C#N)cc2)c(=O)n4C)cn1 :: 794
Cn1c(=O)n(-c2ccc(C(C)(C)C#N)cc2)c2c3ccccc3ncc21 :: 15800
Cc1ccc(-n2c(=O)n(C)c3cnc4ccc(-c5ccncc5)cc4c32)cc1 :: 2510

Turning now to a further record.
Input: Sample COc1ccc(-n2c(=O)n(C)c3cnc4ccc(-c5ccncc5)cc4c32)cc1 — what was its IC50?
Output: 2510
